target: progesterone receptor (estrogen-primed rabbit uterus) (Oryctolagus cuniculus); construct: preparation of cytosols for the progesterone and glucocorticoid receptor assays; from tissue; host or cells: uterus of estradiol-primed immature female New Zealand White rabbits (cytosol); experiment: Relative binding affinity, progesterone receptor; settings: estrogen-primed rabbit uterus; progesterone = 100%
measurement_type: RELATIVE BINDING AFFINITY Progesterone (%)

{"molecule": "CC(=O)O[C@]1(C(=O)COC(=O)CCC2CCCC2)CC[C@H]2[C@@H]3CCC4=CC(=O)CCC4=C3[C@@H](c3ccc(N(C)C)cc3)C[C@@]21C [Compound 40]", "assay_system": "progesterone receptor (estrogen-primed rabbit uterus) (Oryctolagus cuniculus)", "u": "%", "obs_value": 74}

[A] CC(=O)O[C@]1(C(=O)CCl)CCC2C3CCC4=CC(=O)CCC4=C3C(c3ccc(N(C)C)cc3)C[C@@]21C (stereo partly drawn) [Compound 14A]
[B] CC(=O)O[C@]1(C(=O)CO)CCC2C3CCC4=CC(=O)CCC4=C3C(c3ccc(N(C)C)cc3)C[C@@]21C (stereo partly drawn) [Compound 41]
Between A and B , whose recorded RELATIVE BINDING AFFINITY Progesterone is greater? State your choice using its label.
A
(A: 127%, B: 62%)

====

Biological target: glucocorticoid receptor (estrogen-primed rabbit thymus) (Oryctolagus cuniculus, UniProt P59667)
Construct: preparation of cytosols for the progesterone and glucocorticoid receptor assays; from tissue; host or cells: thymus of estradiol-primed immature female New Zealand White rabbits (cytosol)
Sequence (P59667 1-772): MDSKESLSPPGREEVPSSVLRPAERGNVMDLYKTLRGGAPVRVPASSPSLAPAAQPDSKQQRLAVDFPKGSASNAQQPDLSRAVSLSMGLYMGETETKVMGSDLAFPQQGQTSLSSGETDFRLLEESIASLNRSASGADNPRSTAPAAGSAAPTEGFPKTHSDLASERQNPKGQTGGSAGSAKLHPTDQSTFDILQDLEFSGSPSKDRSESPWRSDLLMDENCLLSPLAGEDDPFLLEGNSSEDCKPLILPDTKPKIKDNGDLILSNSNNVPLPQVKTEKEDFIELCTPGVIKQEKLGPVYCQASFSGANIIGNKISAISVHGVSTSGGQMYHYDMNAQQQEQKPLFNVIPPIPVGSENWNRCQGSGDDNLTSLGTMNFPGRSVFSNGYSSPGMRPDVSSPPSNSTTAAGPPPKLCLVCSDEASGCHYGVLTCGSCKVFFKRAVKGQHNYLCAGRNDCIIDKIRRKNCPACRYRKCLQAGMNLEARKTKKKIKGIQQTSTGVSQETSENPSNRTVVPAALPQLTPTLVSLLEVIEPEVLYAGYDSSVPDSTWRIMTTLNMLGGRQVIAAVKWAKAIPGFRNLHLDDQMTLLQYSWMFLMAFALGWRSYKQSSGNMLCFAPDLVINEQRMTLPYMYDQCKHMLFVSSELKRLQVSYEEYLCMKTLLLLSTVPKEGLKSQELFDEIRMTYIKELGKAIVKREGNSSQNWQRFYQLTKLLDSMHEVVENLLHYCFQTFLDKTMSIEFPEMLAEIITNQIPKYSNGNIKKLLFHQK
Experiment: Relative binding affinity, glucocorticoid receptor
Settings: Table 2; estrogen-primed rabbit thymus; dexamethasone = 100%
measurement_type: BINDING AFFINITY Glucocortic (%)

{"compound": "CCC(=O)OCC(=O)[C@@]1(OC(C)=O)CCC2C3CCC4=CC(=O)CCC4=C3C(c3ccc(N(C)C)cc3)C[C@@]21C (stereo partly shown) [Compound 126a]", "BINDING AFFINITY Glucocortic / %": 43}
{"compound": "COCC(=O)C1(OC)CCC2C3CCC4=CC(=O)CCC4=C3C(c3ccc(N4CCCC4)cc3)CC21C (stereo not shown) [Compound 113b]", "BINDING AFFINITY Glucocortic / %": 34}
{"compound": "CSc1ccc([C@H]2C[C@@]3(C)[C@@H](CC[C@]3(OC(C)=O)C(C)=O)[C@@H]3CCC4=CC(=O)CCC4=C32)cc1 [Compound 74]", "BINDING AFFINITY Glucocortic / %": 32}

[P] CCC(=O)OC1(C(C)=O)CCC2C3CCC4=CC(=O)CCC4=C3C(c3ccc(N(C)C)cc3)CC21C (stereo not shown) [Compound 69C]
[Q] CC(=O)O[C@]1(C(C)=O)CC[C@H]2[C@@H]3CCC4=CC(=O)CCC4=C3[C@@H](c3ccc(N4CCCCC4)cc3)C[C@@]21C [Compound 71]
[R] CC(=O)O[C@]1(C(=O)COC(=O)CN(C)C)CC[C@H]2[C@@H]3CCC4=CC(=O)CCC4=C3[C@@H](c3ccc(N(C)C)cc3)C[C@@]21C [Compound 133]
// ranking: key=BINDING AFFINITY Glucocortic, reverse=True Write the labels out in the order the request specifies.
P, Q, R
(P: 49%, Q: 20%, R: 13%)

[I] COCC1(C(C)=O)CCC2C3CCC4=CC(=O)CCC4=C3C(c3ccc(N(C)C)cc3)CC21C (stereo not shown) [Compound 91]
[II] CC(=O)O[C@]1(C(C)=O)CC[C@H]2[C@@H]3CCC4=CC(=O)CCC4=C3[C@@H](c3ccc(N4CCOCC4)cc3)C[C@@]21C [Compound 72]
Given the listed items, does I or II have the lesser reported BINDING AFFINITY Glucocortic? Could you answer with the label of the item you picked?
I
(I: 59%, II: 110%)

====

Target: progesterone receptor (estrogen-primed rabbit uterus) (Oryctolagus cuniculus)
Construct: preparation of cytosols for the progesterone and glucocorticoid receptor assays; from tissue; host or cells: uterus of estradiol-primed immature female New Zealand White rabbits (cytosol)
Sequence (P06186 1-930): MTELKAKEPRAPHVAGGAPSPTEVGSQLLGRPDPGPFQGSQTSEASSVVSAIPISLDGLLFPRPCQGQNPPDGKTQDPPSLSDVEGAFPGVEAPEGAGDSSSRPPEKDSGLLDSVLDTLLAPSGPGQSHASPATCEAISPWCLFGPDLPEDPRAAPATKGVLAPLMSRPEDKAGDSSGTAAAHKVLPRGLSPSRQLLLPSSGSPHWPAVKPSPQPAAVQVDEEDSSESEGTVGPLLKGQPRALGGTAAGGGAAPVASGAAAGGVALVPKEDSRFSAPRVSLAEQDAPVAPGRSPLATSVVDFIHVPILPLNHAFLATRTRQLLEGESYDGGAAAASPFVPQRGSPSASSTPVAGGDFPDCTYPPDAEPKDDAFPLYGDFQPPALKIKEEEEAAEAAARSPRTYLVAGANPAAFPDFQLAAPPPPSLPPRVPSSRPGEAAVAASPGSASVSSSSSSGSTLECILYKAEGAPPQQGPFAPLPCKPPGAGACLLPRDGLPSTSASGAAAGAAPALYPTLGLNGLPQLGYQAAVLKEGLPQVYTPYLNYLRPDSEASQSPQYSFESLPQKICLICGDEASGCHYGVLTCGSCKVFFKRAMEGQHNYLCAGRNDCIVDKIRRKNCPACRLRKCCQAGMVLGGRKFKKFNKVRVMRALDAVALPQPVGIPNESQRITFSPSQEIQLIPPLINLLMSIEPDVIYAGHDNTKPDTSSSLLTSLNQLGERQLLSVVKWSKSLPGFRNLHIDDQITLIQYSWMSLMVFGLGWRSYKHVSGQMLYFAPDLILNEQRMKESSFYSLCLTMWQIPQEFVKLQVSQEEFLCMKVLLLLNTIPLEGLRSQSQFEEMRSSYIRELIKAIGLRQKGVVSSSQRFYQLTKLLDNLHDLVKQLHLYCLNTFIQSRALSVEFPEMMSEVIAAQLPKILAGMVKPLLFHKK
Experiment: Relative binding affinity, progesterone receptor
Conditions: Table 2; estrogen-primed rabbit uterus; progesterone = 100%
measurement_type: BINDING AFFINITY Progester (%)

{"molecule": "COCC1(C(C)=O)CCC2C3CCC4=CC(=O)CCC4=C3C(c3ccc(N(C)C)cc3)CC21C (stereo not shown) [Compound 91]", "obs_value": 171}
{"molecule": "CN(C)c1ccc([C@H]2C[C@@]3(C)[C@@H](CC[C@]3(OC=O)C(=O)COC=O)[C@@H]3CCC4=CC(=O)CCC4=C32)cc1 [Compound 139]", "obs_value": 30}
{"molecule": "COCC(=O)C1(OC)CCC2C3CCC4=CC(=O)CCC4=C3C(c3ccc(N4CCCC4)cc3)CC21C (stereo not shown) [Compound 113b]", "obs_value": 59}
{"molecule": "C=COCC(=O)[C@@]1(OC(C)=O)CCC2C3CCC4=CC(=O)CCC4=C3C(c3ccc(N(C)C)cc3)C[C@@]21C (stereo partly shown) [Compound 129]", "obs_value": 155}
{"molecule": "CC(=O)C1(OC=O)CCC2C3CCC4=CC(=O)CCC4=C3C(c3ccc(N(C)C)cc3)CC21C (stereo not shown) [Compound 69A]", "obs_value": 164}

[a] CC(=O)O[C@]1(C(=O)COC(=O)CN(C)C)CC[C@H]2[C@@H]3CCC4=CC(=O)CCC4=C3[C@@H](c3ccc(N(C)C)cc3)C[C@@]21C [Compound 133]
[b] COCC(=O)C1(OC(C)=O)CCC2C3CCC4=CC(=O)CCC4=C3C(c3ccc(N4CCCCC4)cc3)CC21C (stereo not shown) [Compound 123a]
Please tell me which of the two, a or b , has the higher reported BINDING AFFINITY Progester value. Give the label of your selection.
b

[I] COC(=O)OCC(=O)C1(OC(C)=O)CCC2C3CCC4=CC(=O)CCC4=C3C(c3ccc(N(C)C)cc3)CC21C (stereo not shown) [Compound 126c]
[II] CC(=O)O[C@]1(C(C)=O)CC[C@H]2[C@@H]3CCC4=CC(=O)CCC4=C3[C@@H](c3ccc(N4CCCCC4)cc3)C[C@@]21C [Compound 71]
Could you please tell me which of these two has the higher BINDING AFFINITY Progester: I or II ? Record your answer as the label of the chosen record.
II
(II: 123%, I: 68%)

[P] COCC(=O)C1(OC)CCC2C3CCC4=CC(=O)CCC4=C3C(c3ccc(N4CCCCC4)cc3)CC21C (stereo not shown) [Compound 113c]
[Q] COCC(=O)[C@@]1(OC)CC[C@H]2[C@@H]3CCC4=CC(=O)CCC4=C3[C@@H](c3ccc(N(C)C)cc3)C[C@@]21C [Compound 113a]
Which gives the smaller BINDING AFFINITY Progester number: P or Q ? State your choice using its label.
P
(P: 63%, Q: 117%)
